test.system: PI3K-γ (Homo sapiens, UniProt P48736)
Sequence (P48736 whole entry, species assumed): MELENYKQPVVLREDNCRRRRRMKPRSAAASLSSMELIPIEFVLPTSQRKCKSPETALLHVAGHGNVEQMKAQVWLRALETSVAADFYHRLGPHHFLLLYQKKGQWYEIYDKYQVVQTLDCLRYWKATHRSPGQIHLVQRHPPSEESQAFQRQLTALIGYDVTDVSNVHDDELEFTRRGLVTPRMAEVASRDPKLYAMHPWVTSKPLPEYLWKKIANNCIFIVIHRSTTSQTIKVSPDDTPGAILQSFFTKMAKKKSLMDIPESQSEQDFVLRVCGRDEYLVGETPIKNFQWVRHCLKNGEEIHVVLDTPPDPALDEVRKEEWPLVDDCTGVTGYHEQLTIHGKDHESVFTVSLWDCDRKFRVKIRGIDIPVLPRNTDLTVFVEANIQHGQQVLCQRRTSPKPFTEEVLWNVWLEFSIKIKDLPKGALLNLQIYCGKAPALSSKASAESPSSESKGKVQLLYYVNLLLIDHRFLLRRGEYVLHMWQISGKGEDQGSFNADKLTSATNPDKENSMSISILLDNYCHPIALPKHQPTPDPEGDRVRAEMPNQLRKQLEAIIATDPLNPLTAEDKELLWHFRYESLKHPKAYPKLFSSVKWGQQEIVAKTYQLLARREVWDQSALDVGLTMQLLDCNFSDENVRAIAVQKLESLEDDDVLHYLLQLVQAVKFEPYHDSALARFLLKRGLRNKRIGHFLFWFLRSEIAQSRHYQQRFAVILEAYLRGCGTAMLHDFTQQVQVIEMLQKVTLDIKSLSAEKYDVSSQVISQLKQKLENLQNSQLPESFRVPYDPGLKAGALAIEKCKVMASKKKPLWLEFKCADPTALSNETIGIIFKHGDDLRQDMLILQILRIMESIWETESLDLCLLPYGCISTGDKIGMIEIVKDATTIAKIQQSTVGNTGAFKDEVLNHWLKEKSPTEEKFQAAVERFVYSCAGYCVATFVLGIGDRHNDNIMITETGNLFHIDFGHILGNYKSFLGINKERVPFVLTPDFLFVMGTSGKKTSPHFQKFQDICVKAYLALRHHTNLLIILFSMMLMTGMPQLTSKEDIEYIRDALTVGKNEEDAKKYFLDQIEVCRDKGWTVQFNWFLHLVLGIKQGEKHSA
test.method.notes: PI3K-gamma fluorescence polarization assay
settings: read-out: IC50 PI3Kγ
observable: IC50 (nM)
Record the value in nM, omitting the unit from your answer.

Below, each entry is followed by its recorded IC50 result.
C[C@@H]1COCCN1c1nc(-c2ccc(NC(=O)Nc3ccc(N4CCN(C)CC4)nc3)cc2)nc(C2CCOCC2)n1: 1510
O=C(Nc1ccc(CCO)cc1)Nc1ccc(-c2nc(N3CCOCC3)nc(N3CCOCC3)n2)cc1: 21
CC(C)N1CCN(C(=O)c2ccc(NC(=O)Nc3ccc(-c4nc(N5CCOC[C@H]5C)nc(N5CCOC[C@@H]5C)n4)cc3)cc2)CC1: 84.5

Exercise: Given the compound CNCCNC(=O)Nc1ccc(-c2nc(OC3CCOCC3)nc(N3CCOCC3)n2)cc1 , what is its reported IC50?
Solution: 1190

Exercise: Any idea what its IC50 is? The compound is C[C@H]1COCCN1c1nc(-c2ccc(NC(=O)Nc3ccc(C(=O)N(C)CCN(C)C)cc3)cc2)nc(N2C3CCC2COC3)n1
Solution: 87.5

Exercise: Sample CN(C)CCN(C)C(=O)c1ccc(NC(=O)Nc2ccc(-c3nc(N4CCOCC4)nc(N4C5CCC4COC5)n3)cc2)cc1 — what was its IC50?
Solution: 44.7

Exercise: // query IC50 value for entry CN1CCN(CCNC(=O)c2ccc(NC(=O)Nc3ccc(-c4nc(N5CCOCC5)nc(N5C6CCC5COC6)n4)cc3)cc2)CC1
Solution: 31

====

test.system: Human mTOR (FLAG-TOR) (Homo sapiens)
Sequence (P42345 1360-2549 limits assumed): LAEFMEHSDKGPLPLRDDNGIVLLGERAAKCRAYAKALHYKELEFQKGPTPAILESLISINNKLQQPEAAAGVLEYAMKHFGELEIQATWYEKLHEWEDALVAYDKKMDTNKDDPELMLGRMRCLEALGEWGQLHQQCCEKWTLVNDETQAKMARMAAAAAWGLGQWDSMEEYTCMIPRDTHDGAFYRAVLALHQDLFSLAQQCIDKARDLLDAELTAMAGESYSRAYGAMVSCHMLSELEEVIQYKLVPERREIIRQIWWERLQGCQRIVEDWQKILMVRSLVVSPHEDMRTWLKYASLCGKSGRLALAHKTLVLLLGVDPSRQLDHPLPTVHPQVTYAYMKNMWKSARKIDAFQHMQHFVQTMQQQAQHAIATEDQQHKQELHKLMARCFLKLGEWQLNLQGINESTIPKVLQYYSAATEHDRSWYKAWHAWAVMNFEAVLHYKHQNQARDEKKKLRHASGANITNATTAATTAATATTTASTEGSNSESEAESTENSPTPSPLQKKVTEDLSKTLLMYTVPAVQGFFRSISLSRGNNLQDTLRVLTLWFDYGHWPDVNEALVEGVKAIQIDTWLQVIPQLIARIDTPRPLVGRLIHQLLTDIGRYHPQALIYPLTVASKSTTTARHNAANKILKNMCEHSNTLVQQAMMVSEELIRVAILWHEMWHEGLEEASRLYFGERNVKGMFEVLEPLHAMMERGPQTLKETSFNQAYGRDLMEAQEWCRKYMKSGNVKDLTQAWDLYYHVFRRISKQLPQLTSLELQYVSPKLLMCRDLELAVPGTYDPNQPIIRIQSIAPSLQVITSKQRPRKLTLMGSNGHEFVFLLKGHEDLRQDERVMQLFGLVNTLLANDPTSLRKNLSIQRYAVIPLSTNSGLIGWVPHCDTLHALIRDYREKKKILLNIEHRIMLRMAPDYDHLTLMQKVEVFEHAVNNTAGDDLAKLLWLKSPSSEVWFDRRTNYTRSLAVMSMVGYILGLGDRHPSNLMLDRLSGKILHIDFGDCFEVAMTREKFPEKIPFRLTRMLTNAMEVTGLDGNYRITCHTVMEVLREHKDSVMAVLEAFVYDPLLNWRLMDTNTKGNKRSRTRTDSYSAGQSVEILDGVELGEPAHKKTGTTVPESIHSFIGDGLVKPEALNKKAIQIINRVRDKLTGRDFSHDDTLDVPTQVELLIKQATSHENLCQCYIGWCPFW
test.method.notes: mTOR kinase assay (DELFIA format, purified enzyme)
Assay type: biochemical
settings: read-out: IC50 mTOR
Attribute: IC50
Please respond with the number in nM and leave the unit unwritten.

Check out these entries, answers already filled in.
CC(C)c1nc(-c2ccc(NC(=O)Nc3ccc(C(=O)NCCN(C)C)cc3)cc2)nc(N2CCOCC2)n1: 0.6
Cc1nc(-c2ccc(NC(=O)Nc3ccc(C(=O)N4CCN(C)CC4)cc3)cc2)nc(N2CCOCC2)n1: 60
COC(=O)c1ccc(NC(=O)Nc2ccc(-c3nc(N4CCOCC4)nc(N4CCOC[C@@H]4C)n3)cc2)cc1: 1

Next, consider the following compound.
Exercise: Give the measured IC50 of C[C@H]1COCCN1c1nc(-c2ccc(NC(=O)Nc3ccc(C(=O)N4CCCCC4)cc3)cc2)nc(N2CCOC[C@@H]2C)n1 .
Solution: 4

====

test.system: PI3K-α (Homo sapiens, UniProt P42336)
Sequence (P42336 whole entry, species assumed): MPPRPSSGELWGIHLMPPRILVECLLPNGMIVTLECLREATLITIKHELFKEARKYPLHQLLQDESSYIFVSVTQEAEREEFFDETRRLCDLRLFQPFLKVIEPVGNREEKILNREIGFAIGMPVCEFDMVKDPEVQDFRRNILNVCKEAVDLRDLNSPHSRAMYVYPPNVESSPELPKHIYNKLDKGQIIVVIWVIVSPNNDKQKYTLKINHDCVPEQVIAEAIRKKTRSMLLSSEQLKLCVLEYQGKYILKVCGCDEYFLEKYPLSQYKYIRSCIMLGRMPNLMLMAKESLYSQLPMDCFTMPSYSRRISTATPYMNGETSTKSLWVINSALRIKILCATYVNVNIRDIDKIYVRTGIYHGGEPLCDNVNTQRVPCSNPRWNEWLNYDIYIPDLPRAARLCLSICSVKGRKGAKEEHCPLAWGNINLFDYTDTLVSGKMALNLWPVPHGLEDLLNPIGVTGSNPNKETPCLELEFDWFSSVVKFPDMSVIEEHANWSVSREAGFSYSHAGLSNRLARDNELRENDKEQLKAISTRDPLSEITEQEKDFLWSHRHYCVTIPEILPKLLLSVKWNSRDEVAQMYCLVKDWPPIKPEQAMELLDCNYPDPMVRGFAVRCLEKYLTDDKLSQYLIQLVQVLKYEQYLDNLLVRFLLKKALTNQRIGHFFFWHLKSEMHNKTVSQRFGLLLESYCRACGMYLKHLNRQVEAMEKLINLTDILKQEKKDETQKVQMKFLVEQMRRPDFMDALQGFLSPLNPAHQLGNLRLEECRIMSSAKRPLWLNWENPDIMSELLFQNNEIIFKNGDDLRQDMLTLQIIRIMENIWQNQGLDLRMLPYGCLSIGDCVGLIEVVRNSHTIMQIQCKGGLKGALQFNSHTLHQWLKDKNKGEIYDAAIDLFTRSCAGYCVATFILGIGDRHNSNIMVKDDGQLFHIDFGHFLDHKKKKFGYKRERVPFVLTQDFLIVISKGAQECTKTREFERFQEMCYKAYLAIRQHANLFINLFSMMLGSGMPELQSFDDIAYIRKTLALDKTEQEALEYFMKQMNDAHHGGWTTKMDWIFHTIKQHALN
Sequence (P27986 whole entry partner, species assumed): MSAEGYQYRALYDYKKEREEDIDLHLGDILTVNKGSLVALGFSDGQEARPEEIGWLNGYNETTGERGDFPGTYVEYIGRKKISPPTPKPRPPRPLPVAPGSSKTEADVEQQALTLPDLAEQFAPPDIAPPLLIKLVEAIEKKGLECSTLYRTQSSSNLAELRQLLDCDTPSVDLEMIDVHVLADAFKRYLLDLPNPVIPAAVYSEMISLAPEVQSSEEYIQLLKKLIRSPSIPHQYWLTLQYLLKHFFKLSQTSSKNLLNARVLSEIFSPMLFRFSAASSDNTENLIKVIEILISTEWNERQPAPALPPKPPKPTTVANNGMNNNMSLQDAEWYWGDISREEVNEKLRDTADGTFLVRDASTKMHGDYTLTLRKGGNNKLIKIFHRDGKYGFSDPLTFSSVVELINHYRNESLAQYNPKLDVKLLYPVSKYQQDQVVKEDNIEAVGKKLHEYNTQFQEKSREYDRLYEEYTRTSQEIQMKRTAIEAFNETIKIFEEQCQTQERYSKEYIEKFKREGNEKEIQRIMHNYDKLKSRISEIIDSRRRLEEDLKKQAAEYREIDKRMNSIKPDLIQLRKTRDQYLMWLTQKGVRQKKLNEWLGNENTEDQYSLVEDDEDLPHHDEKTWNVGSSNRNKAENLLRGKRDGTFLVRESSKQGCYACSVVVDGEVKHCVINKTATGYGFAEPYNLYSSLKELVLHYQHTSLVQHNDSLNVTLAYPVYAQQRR
test.method.notes: PI3K-alpha fluorescence polarization assay
settings: read-out: IC50 PI3Kα; listed as 827
observable: pIC50
Please keep in mind that pIC50 is minus log10 of the molar concentration; only the number is needed.

Exercise: Item CN(C)[C@H]1CCN(C(=O)c2ccc(NC(=O)Nc3ccc(-c4nc(N5CCOCC5)nc(N5C6CCC5COC6)n4)cc3)cc2)C1 has what recorded pIC50?
Solution: 8.67

====

test.system: Human mTOR (FLAG-TOR) (Homo sapiens)
test.method.notes: mTOR kinase assay (DELFIA format, purified enzyme)
Type: biochemical
settings: read-out: IC50 mTOR
Attribute: pIC50
# reply with the number alone; pIC50 is -log10 of concentration in mol/L

O=C(Nc1ccncc1)Nc1ccc(-c2nc(N3CCC(O)CC3)nc(N3CC4CCC(C3)O4)n2)cc1 [Example 116]: 8.57
CN(C)CCCNC(=O)c1ccc(NC(=O)Nc2ccc(-c3nc(N4CCCCC4)nc(N4CCOCC4)n3)cc2)cc1 [Example 610]: 8.30
CCCCc1nc(-c2ccc(NC(=O)Nc3ccc(C(=O)N4CCC(Cc5ccccc5)CC4)cc3)cc2)nc(N2CCOCC2)n1 [Example 270]: 6.80

Exercise: Need pIC50 of O=C(Nc1ccc(C(=O)N2CCC(N3CCCC3)CC2)cc1)Nc1ccc(-c2nc(N3CCOCC3)nc(N3C4CCC3COC4)n2)cc1 [Example 761] , thanks.
Solution: 9.92

Exercise: Please look up its pIC50: O=C(Nc1ccc(CN2CCNCC2)cc1)Nc1ccc(-c2nc(N3C4CCC3COC4)nc(N3C4CCC3COC4)n2)cc1 [Example 366]
Solution: 8.96

Exercise: Tell me the measured pIC50 of CN(C)CCNC(=O)c1ccc(NC(=O)Nc2ccc(-c3nc(N4CCOCC4)nc(N4CCOCC4)n3)cc2)cc1 [Example 68] , please.
Solution: 9.24

Exercise: Returns the measured pIC50 for the input compound. Input: CN(C)C1CCN(C(=O)c2ccc(NC(=O)Nc3ccc(-c4nc(N5CCOCC5)nc(N5CCOCC5)n4)cc3)cc2)C1 (centres unmarked) [Example 167]
Solution: 9.17

Exercise: Name the recorded pIC50 for CC(C)c1nc(-c2ccc(NC(=O)Nc3ccc(C(=O)Nc4ccncc4)cc3)cc2)nc(N2CCOCC2)n1 [Example 309] .
Solution: 8.46

Exercise: Item CN1CCN(c2nc(-c3ccc(NC(=O)Nc4ccncc4)cc3)nc(N3CC4CCC(C3)O4)n2)CC1 [Example 108] has what recorded pIC50?
Solution: 7.72

Exercise: Looking for the measured pIC50 of CNC(=O)c1ccc(NC(=O)Nc2ccc(-c3nc(N4CCOCC4)nc(N4CCOCC4)n3)cc2)cc1 [Example 70] , can you help?
Solution: 9.15

Exercise: Which measured pIC50 value corresponds to CN(C)CCNC(=O)c1ccc(NC(=O)Nc2ccc(-c3nc(-c4cccs4)nc(N4CCOCC4)n3)cc2)cc1 [Example 563] ?
Solution: 8.52

Exercise: Consider the compound Cc1ccc(NC(=O)Nc2ccc(-c3nc(NC4CN(C(=O)OC(C)(C)C)C4)nc(N4CCOCC4)n3)cc2)cc1 [Example 16] and give its measured pIC50.
Solution: 7.92

Exercise: Fill in: pIC50 of O=C(Nc1ccncc1)Nc1ccc(-c2nc(-c3cccs3)nc(N3CCOCC3)n2)cc1 [Example 557] is ___
Solution: 8.07

Exercise: Quick one: pIC50 of CN1CCN(C(=O)c2ccc(NC(=O)Nc3ccc(-c4nc(N5CCOCC5)nc(N5CC6CCC5CO6)n4)cc3)cc2)CC1 (centres unmarked) [Example 813] ?
Solution: 8.72

Source: patent US20090304692A1
